Data provenance: PubChem BioAssay (NCATS)

test system: KB-3-1; test: Cytotoxic Profiling of Annotated Libraries Using Quantitative High-Throughput Screening (AID 1296008); settings: Five cell lines viability, CellTiter-Glo ATP luminescence, 48-72 h; active compounds read low; further: on the % scale 0 is the no-effect control and ±100 the full control effect; nearly all actives have a fitted effect of over 60% in size
Records with an inconclusive call do not appear. Where a SMILES comes first, the peptide text is derived from it. [ ]: non-standard residue; d: D form. ξ: configuration not given here. ξTyr(βOH) = NC(C(=O)O)C(O)c1ccc(O)cc1
Task for the reader: assign each of the following molecules its reported max response.
Answers are plain numbers, in %.

List reported max response for each of these molecules:
1. CC(CNS(=O)(=O)C(C)C)c1ccc(-c2ccc(C#N)cc2)cc1 (stereo not drawn)
2. C[C@]1(OC(=O)/C=C/c2ccc(O)cc2)C[C@@H](O)[C@]2(O)C=CO[C@@H](O[C@@H]3O[C@H](CO)[C@@H](O)[C@H](O)[C@H]3O)C12 (stereo partly drawn)
3. C=C1CC23CC1CCC2C12OC(=O)C(C)(C(O)CC1O)C2C3C(=O)O (stereo not drawn)

Result:
1. -27.5
2. 6.86
3. 1.34

Field: max response. Fill in for each record below.
1. COC(=O)[C@H](c1ccccc1Cl)N1CCC2SC(=O)C=C2C1 (stereo partly drawn)
2. C[C@@H]1O[C@@H](OC[C@H]2O[C@@H](OCc3ccccc3)[C@H](O)[C@@H](O)[C@@H]2O)[C@H](O)[C@H](O)[C@H]1O
3. C[C@@H]1C(=O)O[C@H]2[C@H]1CC[C@@]1(C)C(=O)C=C[C@@](C)(O)[C@H]21
4. C=C1CC[C@@H]2C(C)(C)CCC[C@@]2(C)[C@@H]1CC/C(=C/C(=O)OC)COC(C)=O
5. CC12CC34CC(O)C5C(CO)(CO)CC(=O)CC5(C)C3CC1C2C4 (stereo not drawn)
6. COc1cc2c(cc1O)C(c1ccc(O)cc1)C(C)C(C)C2 (stereo not drawn)

Result:
[7.5, -7.21, 1.69, -9.17, 0.93, -7.89]

Can you give me max response for all of these, one by one?
1. O=C(OC1C=C(CO)C2C(OC3OC(CO)C(O)C(O)C3O)OC=CC12O)c1ccc(O)cc1 (stereo not drawn)
2. CC[C@H]1OC(=O)[C@H](C)[C@@H](O[C@H]2C[C@@](C)(OC)[C@@H](O)[C@H](C)O2)C(C)[C@@H](O[C@@H]2O[C@H](C)C[C@H](N(C)C)[C@H]2O)[C@](C)(O)C[C@@H](C)CN(C)[C@H](C)[C@@H](O)[C@]1(C)O (stereo partly drawn)
3. O=C(/C=C/C=C/c1ccc2c(c1)OCO2)N1CCCCC1
4. COC(=O)[C@H](O)[C@H]1C(C)(C)[C@H](OC(C)=O)[C@@]2(O)C(=O)[C@]1(C)C1CC[C@]3(C)C(CC(=O)O[C@H]3c3ccoc3)[C@]13O[C@@H]32 (stereo partly drawn)

Result:
1. 1.12
2. -2.18
3. 3.15
4. -6.4

Field: max response. Fill in for each record below.
1. CNC(=O)c1ccc2c(c1)CCO[C@H]2CCN1CCN(c2ccc(C(N)=O)cc2)CC1
2. OC[C@@]1(O)CO[C@H](OC[C@H]2O[C@@H](OCCc3ccccc3)[C@H](O)[C@@H](O)[C@@H]2O)[C@@H]1O
3. Cc1ncc(Cl)cc1NCc1ccc(C(=O)NC(CC2CCCC2)C(=O)NC2CC2)s1 (stereo not drawn)
4. O=C(/C=C/c1ccccc1)O[C@@H]1[C@@H](CO)O[C@@](CO)(O[C@H]2O[C@H](CO)[C@@H](O)[C@H](O)[C@H]2O)[C@H]1O
5. CC1CCC2(C(=O)O)CCC3(C)C(=CCC4C5(C)CCC(O)C(C)(C(=O)O)C5CCC43C)C2C1(C)O (stereo not drawn)

Result:
-1.44
-0.728
-1.73
-2.31
3.72

Would you mind giving max response for every molecule in the list below?
1. CC(C)[C@@](O)(c1ccc2cc(OC(F)F)c(OC(F)F)cc2c1)c1cn[nH]n1
2. COc1cn(-c2ccc(-n3cccn3)cc2F)nc(-c2ccnn2-c2ccccc2)c1=O

Result:
[5.26, 7.34]

List max response for every entry below, keeping the order given.
1. CCCCS(=O)(=O)NC(Cc1ccc(OCCCCC2CCNCC2)cc1)C(=O)O (stereo not drawn)
2. CN[C@H](CNC(=O)N1CCC[C@@H]([C@@H](OCCNC(=O)OC)c2cccc(Cl)c2)C1)C[C@H]1CCCOC1
3. C=C1CC/C=C(/CO)C(=O)C[C@@H]2[C@@H]1C[C@@]2(C)COC(C)=O
4. Cc1c(C)c(NCC(=O)N(C)C2CCN(Cc3ccc(C(N)=O)cc3)CC2)c(C)c(C)c1N
5. CC1=C2CC(=O)C(C)CC/C=C(\C)CC2(O)OC1=O (stereo not drawn)
6. CCC1=C(C)C(=O)C(C)CC12C(=O)CCC2C(=O)O (stereo not drawn)

Result:
[0.365, 1.87, 5.17, -3.8, 3.81, 0.468]

For the 5 molecules below, give their max response values.
1. N[C@@H](CCNCc1ccc(Cl)cc1)C(=O)N1CCCCC1
2. O=C(OC[C@H]1O[C@@H](Oc2ccccc2CO)[C@H](O)[C@@H](O)[C@@H]1O)c1ccccc1
3. CC1(C)CCC[C@]2(C)C1CC=C(CO)[C@H]2CC/C(=C/CO)CO (stereo partly drawn)
4. C=CC1(C)CC=C2C(CCC3C(C)(C(=O)O)CCCC23C)C1 (stereo not drawn)
5. COC(=O)C(CC1(OC(=O)C(C)C)c2ccccc2N2C(=O)C(C)(C)N(O)C21)n1cnc2ccccc2c1=O (stereo not drawn)

Result:
1. 7.85
2. 3.27
3. -0.734
4. 7.47
5. 5.72

// each listed molecule needs a value for max response
1. CC(C)C1NC(=O)CNC(=O)C2CCCN2C(=O)C(Cc2c[nH]c3ccccc23)NC(=O)CNC(=O)C(C(O)c2ccc(O)cc2)NC(=O)CNC1=O (stereo not drawn) (cyclo(G[ξTyr(βOH)]GWPGV); configuration not given here)
2. COCC1OC(OC(C)(C)C2CCC3(C)C=C(C4CCC5C4(C)CC(O)C4OC(C(C)(C)O)CCC45C)CCC3O2)C(NC(C)=O)C(O)C1O (stereo not drawn)

Result:
2.88
7.28
